Target protein (sequence): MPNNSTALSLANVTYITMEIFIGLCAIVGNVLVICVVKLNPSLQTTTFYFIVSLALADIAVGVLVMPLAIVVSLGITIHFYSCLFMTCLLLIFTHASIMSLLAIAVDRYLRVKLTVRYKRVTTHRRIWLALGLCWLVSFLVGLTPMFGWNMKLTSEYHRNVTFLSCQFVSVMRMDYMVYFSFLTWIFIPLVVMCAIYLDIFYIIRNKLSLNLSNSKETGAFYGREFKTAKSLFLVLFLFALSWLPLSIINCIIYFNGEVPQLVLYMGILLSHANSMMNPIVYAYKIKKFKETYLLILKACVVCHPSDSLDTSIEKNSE
pIC50: −log10 of the molar value.
Below is a list of entries, each paired with its recorded pIC50 value.

- compound: "COc1ccc(-c2nc(NC(=O)C(C)C)sc2-c2cccnc2)cc1"
  pIC50: 9.15
- compound: "COc1ccc(-c2nc(NC(C)=O)sc2-c2cccnc2)cc1 [Reference Example Compound 10]"
  pIC50: 9.57

====

Below is a list of entries, each paired with its recorded melting point value.
Counter-ions that a name gives are not always drawn.

- compound: "COc1ccc(-c2nc(NC(=O)C(C)C)sc2-c2cccnc2)cc1"
  melting point: "213 to 216 °C"
- compound: "CC(=O)Nc1nc(-c2ccncc2)c(-c2cc(C)cc(C)c2)s1"
  melting point: "304 to 308 °C"
- compound: "Cc1cc(C)cc(-c2sc(N)nc2-c2ccncc2)c1"
  melting point: "262 to 263 °C"
- compound: "COc1ccc(-c2nc(NC(C)=O)sc2-c2ccncc2)cc1 (as salt: HCl)"
  melting point: "275 to 278 °C"
- compound: "CC(=O)Nc1nc(-c2ccncc2)c(-c2ccc(C(C)(C)C)cc2)s1"
  melting point: "245 to 246 °C"
- compound: "CC(C)(C)c1ccc(-c2sc(N)nc2-c2ccncc2)cc1"
  melting point: "275 to 277 °C"
